Tested System: BTK (Homo sapiens, UniProt Q06187)
Sequence (Q06187 whole entry): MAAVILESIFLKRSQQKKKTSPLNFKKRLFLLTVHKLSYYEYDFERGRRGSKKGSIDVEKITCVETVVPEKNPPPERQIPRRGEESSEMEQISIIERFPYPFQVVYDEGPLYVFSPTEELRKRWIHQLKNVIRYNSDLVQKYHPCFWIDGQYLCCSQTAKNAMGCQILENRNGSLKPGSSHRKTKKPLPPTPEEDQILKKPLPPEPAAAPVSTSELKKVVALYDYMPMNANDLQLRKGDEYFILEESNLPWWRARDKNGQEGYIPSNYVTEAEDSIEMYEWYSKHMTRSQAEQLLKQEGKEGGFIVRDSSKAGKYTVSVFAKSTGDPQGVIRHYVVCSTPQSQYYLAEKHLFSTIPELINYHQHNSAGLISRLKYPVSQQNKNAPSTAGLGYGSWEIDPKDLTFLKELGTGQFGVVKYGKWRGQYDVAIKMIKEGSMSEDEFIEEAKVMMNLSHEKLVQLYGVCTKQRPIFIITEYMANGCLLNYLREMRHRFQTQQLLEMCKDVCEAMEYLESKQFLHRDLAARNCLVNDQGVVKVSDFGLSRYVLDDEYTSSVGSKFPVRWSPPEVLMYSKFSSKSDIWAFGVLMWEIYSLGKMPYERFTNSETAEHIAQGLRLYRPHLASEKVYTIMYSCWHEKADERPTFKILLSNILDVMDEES
Test: Degradation of BTK protein in Namalwa cells (Western blot; DC50, Dmax)
Conditions Used: read-out: DC50 (BTK degradation); concentration giving 50% reduction of BTK expression level; cell line not given

Molecule	DC50
Nc1ncnc2c1c(-c1ccc(Oc3ccccc3)cc1)nn2C1CCN(CCN2CCC(N3CCN(c4ccc5c(c4)CN(C4CCC(=O)NC4=O)C5=O)CC3)C2)CC1 (stereo not drawn) [Compound 460]	10 to 50 nM
Nc1ncnc2c1c(-c1ccc(Oc3ccccc3)cc1)nn2C1CCN(C(=O)N2CC(N3CCN(c4ccc5c(c4)CN([C@H]4CCC(=O)NC4=O)C5=O)CC3)C2)CC1 [Compound 484]	< 10 nM
Nc1ncnc2c1c(-c1ccc(Oc3ccccc3)cc1)nn2C1CCN(C2CCN(CCN3CCC(c4ccc(NC5CCC(=O)NC5=O)cc4)CC3)CC2)CC1 (stereo not drawn) [Compound 579]	10 to 50 nM
Nc1ncnc2c1c(-c1ccc(Oc3ccccc3)cc1)nn2C1CCN(CCCN2CCC(CN3CCC(c4ccc5c(c4)oc(=O)n5C4CCC(=O)NC4=O)CC3)C2)CC1 (stereo not drawn) [Compound 543]	10 to 50 nM
Nc1ncnc2c1c(-c1ccc(Oc3ccccc3)cc1)nn2C1CCN(C2CCN(CC3CCN(c4ccc(NC5CCC(=O)NC5=O)cc4)CC3)CC2)CC1 (stereo not drawn) [Compound 578]	10 to 50 nM
Nc1ncnc2c1c(-c1ccc(Oc3ccccc3)cc1)nn2C1CCN(C2CCN(CCCCC#Cc3ccc(N4CCC(=O)NC4=O)cc3)C2)CC1 (stereo not drawn) [Compound 536]	> 50 nM
